# experimentNotes: NCI Yeast Anticancer Drug Screen. Data for the sgs1 mgt1 strain (AID 161);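 also: 0% = growth of cultures given vehicle only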
# runConditions: S. cerevisiae sgs1 mgt1 strain, at 50.0 µM, stronger effect = higher value
Compounds without any hit were thinned out: in the full panel of roughly 79,000, 15% have a hit.
readoutName: growth inhibition (%)

1. Nc1ncnc2c1ncn2C1OCC(O)C1O (stereo not given)
72.9
2. COc1cc(OC)c(OC)cc1/C=C\c1nccc2ccccc12
93.7
3. Cc1nc(C)c(C(=O)NNC(=O)C[N+](C)(C)C)cc1C(=O)NNC(=O)C[N+](C)(C)C
5.8
4. CCc1ccc(C(=O)O)c2ccccc12
35.1
5. Cc1nn(C(=S)S)c(C)c1N=Nc1cccc(F)c1
88.6
6. Fc1ccc(CSC(=S)Nc2cccc(C(F)(F)F)c2)cc1
99.7
7. O=C(CCN1CCOCC1)c1ccc(Oc2ccc(F)cc2)cc1
85.2
8. CCOP(=O)(OCC)/C(C#N)=C/c1ccc(C(F)(F)F)cc1
90.9
9. COC(=O)c1ccc(CSc2ccc(OC)cc2)cc1
88.3
10. O=C(OC1C2CCC2C2CC21)c1ccc([N+](=O)[O-])cc1[N+](=O)[O-] (stereo not given)
59.1
11. C(=C/c1cnnc2ccccc12)/c1ccccn1
14.8
12. O=C(OCC1OC(OCC(OC(=O)c2ccccc2)C(OC(=O)c2ccccc2)C(OC(=O)c2ccccc2)c2cnn(-c3ccccc3)n2)C(OC(=O)c2ccccc2)C(OC(=O)c2ccccc2)C1OC(=O)c1ccccc1)c1ccccc1 (stereo not given)
98
13. NC(N)=N/N=C(\c1ccc(F)cc1)c1ccc(C(F)(F)F)cc1
80.5
14. COc1ccc(OC)c2c1C=CC(Br)=CC2
45.5
15. Oc1cc(Br)cc2cc(Br)cnc12
80.5

These measurements were taken from PubChem BioAssay (NCI).
